All values here come from patent US20200399382A1.

Entries and their measured koff follow.
Molecular target: T1, human IL-4Rα (SPR target) (human, UniProt P24394 26-232, limits assumed)
T1 construct: also called recombinant human IL-4Rα-Fc
T1 sequence (looked up): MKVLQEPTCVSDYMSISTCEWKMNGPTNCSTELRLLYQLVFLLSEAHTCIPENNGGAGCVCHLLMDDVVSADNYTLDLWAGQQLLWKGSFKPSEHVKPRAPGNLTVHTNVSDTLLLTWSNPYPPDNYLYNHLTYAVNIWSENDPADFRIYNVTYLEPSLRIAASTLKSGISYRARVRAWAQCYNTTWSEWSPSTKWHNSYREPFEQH
Test: SPR (Biacore 3000), periplasmic Fab over CM5 chip coated with human IL-4Rα
Could you give me the number in s⁻¹? Just the number is fine.

Binder	koff / s⁻¹
153E11 Fab (variant of 4RMP3D6) (Fab, V domains shown, Fab from periplasmic extract, with CH1 and CK constant domains; also called VH153E11) VH: QVQLQESGGGLVQPGGSLRLSCAASGFTFSSYSLTWVRQAPGKGLEWVSTIKARGGTTLYADSVKDRFTISRDNAKNTLYLLMNSLKPEDTAVYYCAKPLYNNFAGHFGSWGQGTTVTVSS VL: DIQMTQSPSSLSASLGDRVTITCQASQSISSYLAWYQQKPGQAPKLLIYGGSRLQTGVPSRFSGSGSGTSFTLTISGLETEDLATYYCQQDYSWPLTFGQGTKLEIK	0.00043
3D6wt Fab (parental 4RMP3D6 as Fab) (Fab, V domains shown, also called h4R3D6) VH: QVQLQESGGGLVQPGGSLRLSCAASGFTFSSYSLTWVRQAPGKGLEWVSTIKARGGTTLYADSVKDRFTISRDNAKNTLYLLMNSLKPEDTAVYYCAKPLYNNFAGDFGSWGQGTTVTVSS VL: DIQMTQSPSSLSASLGDRVTITCQASQSISSYLAWYQQKPGQAPKLLIYGGSRLQTGVPSRFSGSGSGTSFTLTISGLETEDLATYYCLQDYSWPLTFGQGTKVELK	0.00053

Input line: Look up and state reported koff for 150A09 Fab (variant of 4RMP3D6) (Fab, V domains shown, Fab from periplasmic extract, with CH1 and CK constant domains; also called VH150A09) VH: QVQLQESGGGLVQPGGSLRLSCAASGFTFSSYSLTWVRQAPGKGLEWVSTIKARGGTTLYADSVKDRFTISRDNAKNTLYLLMNSLKPEDTAVYYCVKPLYSNFAGDFGSWGQGTTVTVSS VL: DIQMTQSPSSLSASLGDRVTITCQASQSISSYLAWYQQKPGQAPRLLIYGGSRLQTGVPSRFSGSGSGTSFTLTISGLETEDLATYYCQQDYSWPLTFGQGTKLEIK
Output line: 0.00084
